Let's look at some compounds and their measured intrinsic clearance, human liver microsomes.
Readout type: intrinsic clearance, human liver microsomes

- Compound: "NC(=O)C1(CCCc2ccccn2)CCNCC1"
  Result: "≤ 0.284 L/h/kg"
- Compound: "O=C1NCCN(C(=O)c2ccncc2)C1c1ccccc1Cl (stereo not drawn)"
  Result: "≤ 0.284 L/h/kg"
- Compound: "O=c1c2cccnc2ncn1[C@H]1CCCc2ccccc21"
  Result: "≤ 0.284 L/h/kg"

----------
Please respond with label 1 when measured MDR1-MDCK efflux ratio is strictly beneath 0.8, and with label 0 in all other cases.

- Smiles representation: "O=c1c2cc(OCc3ccc(Cl)cc3)ccc2nc2n1CCCCC2"
  Class label: "label 0"
- Smiles representation: "CCOC(=O)c1cccnc1-c1ccc2[nH]ccc2c1"
  Class label: "label 1"
- Smiles representation: "C[C@@]1(c2ncncc2F)NC(=O)c2cc(-c3cn[nH]c3)ccc21"
  Class label: "label 0"
- Smiles representation: "O=c1c2oc3ccccc3c2ncn1Cc1ccc(F)c(F)c1"
  Class label: "label 1"

----------
- Molecule: "O=C(NCc1cc(F)cc(F)c1)c1ccccn1"
  MDR1-MDCK efflux ratio: 0.719
- Molecule: "O=C(Nc1nncs1)c1ccc(N2CCC3(CCCCC3)C2)nc1"
  MDR1-MDCK efflux ratio: 0.729
- Molecule: "CN(c1ncc(Br)cn1)C1CCS(=O)CC1 (stereo not given)"
  MDR1-MDCK efflux ratio: 0.943
- Molecule: "Cc1nn(C(F)F)c(C)c1CC(=O)NCCNC(C)(C)C"
  MDR1-MDCK efflux ratio: 20.6
- Molecule: "Cc1cccc([C@H]2CN(C(=O)C3CCCC3)[C@@H]3CCN(CC4CC4)C[C@H]23)c1"
  MDR1-MDCK efflux ratio: 1.86
- Molecule: "CC(C)(O)CNc1ncc(-c2ccnc(Nc3ccnc(Cl)c3)n2)c(CC2CC2)n1"
  MDR1-MDCK efflux ratio: 10.5
- Molecule: "c1ccc(CCn2cnc3c2CCN(c2ncccn2)C3)cc1"
  MDR1-MDCK efflux ratio: 0.802
- Molecule: "Cc1cc(N)n(-c2ncnc3sc(C)c(-c4ccc(Cl)cc4)c23)n1"
  MDR1-MDCK efflux ratio: 0.712
- Molecule: "COc1ccc(-c2noc([C@@H]3CCCN3Cc3ccccc3)n2)cn1"
  MDR1-MDCK efflux ratio: 0.592
- Molecule: "C=CC(=O)N1CCC[C@@H](n2nc(-c3cccc(C(=O)Nc4ccc(C(C)C)c(C)c4)c3)c3c(N)ncnc32)C1"
  MDR1-MDCK efflux ratio: 34.9
- Molecule: "O=C(CN1CCCN(c2ccc(C(F)(F)F)cn2)CC1)Nc1ccccc1"
  MDR1-MDCK efflux ratio: 0.748
- Molecule: "O=C(Nc1ccc(S(=O)(=O)Nc2ccnn2-c2ccccc2)cc1)c1ccco1"
  MDR1-MDCK efflux ratio: 48.8
- Molecule: "CSCc1c(C(=O)NC(C)C)oc2ccccc12"
  MDR1-MDCK efflux ratio: 0.636
- Molecule: "Cc1cc(C)c(-c2csc(CC(N)=O)n2)cc1C"
  MDR1-MDCK efflux ratio: 0.831
- Molecule: "C[C@H]1CN(C2COC2)CCN1c1ccc(Nc2cc(-c3ccnc(N4CCn5c(cc6c5CC(C)(C)C6)C4=O)c3CO)cn(C)c2=O)nc1"
  MDR1-MDCK efflux ratio: 23.1
- Molecule: "CNC(=O)CCc1nc(-c2ccccn2)no1"
  MDR1-MDCK efflux ratio: 1.05
- Molecule: "CN1CCc2nc(NC(=O)c3cncn3-c3ccccc3)sc2C1"
  MDR1-MDCK efflux ratio: 20.3
- Molecule: "O=C(NCCN1CCC(O)(c2cccc(F)c2)CC1)c1cccc(F)c1"
  MDR1-MDCK efflux ratio: 5.65
- Molecule: "COc1ccc(CN2CCN(C(=O)C3CCN(C(=O)C4CC4)CC3)CC2)cc1"
  MDR1-MDCK efflux ratio: 7.58
- Molecule: "CC1CC(N)CCN1C(=O)c1cc(N2CCNC2=O)c(F)cc1F (stereo not given)"
  MDR1-MDCK efflux ratio: 1.32
- Molecule: "COc1nc2c(cc1CNC(=O)N1CC[C@@H](O)C1)C(=O)N(C1CCCC1)C2"
  MDR1-MDCK efflux ratio: 32
- Molecule: "Cc1sc2ncnc(OCC(=O)NC3CCCCC3)c2c1C"
  MDR1-MDCK efflux ratio: 1.59
- Molecule: "COc1cccc(OCCCn2cncc2-c2cc3c(cc2OC)OCCCO3)c1"
  MDR1-MDCK efflux ratio: 5.28
- Molecule: "Cn1c(=O)n(Cc2cccc(OC(F)F)c2)c2cnccc21"
  MDR1-MDCK efflux ratio: 1.34
- Molecule: "NC(=O)CN1CCC(COc2ccccc2C(F)(F)F)CC1"
  MDR1-MDCK efflux ratio: 0.524
- Molecule: "Cc1cc(C(=O)N(C)C2CCC2)n2nccc2n1"
  MDR1-MDCK efflux ratio: 0.719
- Molecule: "CN(Cc1ccccc1)C(=O)c1ccc(-n2cccn2)nc1"
  MDR1-MDCK efflux ratio: 0.566
- Molecule: "CN(CC1CCCC1)C(=O)Nc1ccccc1N1CCOC1=O"
  MDR1-MDCK efflux ratio: 5.03
- Molecule: "Cc1csc(N2CCN(Cc3ccc(OCC(F)(F)F)nc3)CC2)n1"
  MDR1-MDCK efflux ratio: 0.655
- Molecule: "Cc1ncc(-c2ccc(C)c(S(=O)(=O)NCc3cnn(C)c3C)c2)o1"
  MDR1-MDCK efflux ratio: 36.5
- Molecule: "Cc1cc(C)n2nc(C)c(C(=O)NCCc3nnc(C)s3)c2n1"
  MDR1-MDCK efflux ratio: 6.5
- Molecule: "c1ccc(Cc2ccccc2-c2nnc(-c3cccnc3)o2)cc1"
  MDR1-MDCK efflux ratio: 0.45
- Molecule: "CC(C)[C@H](NC(=O)c1c(F)cccc1F)C(=O)N1CCOCC1"
  MDR1-MDCK efflux ratio: 8.08
- Molecule: "Cc1cccn(Cc2cccc(F)c2)c1=O"
  MDR1-MDCK efflux ratio: 0.652
- Molecule: "CC(=O)NCCCOc1ccc(CN2C[C@H](Oc3cccc(C)c3)[C@@H](O)C2)cc1"
  MDR1-MDCK efflux ratio: 31.2

Sourced from the Biogen ADME set (Fang et al. 2023)
